Hello, the source for this data is ChEMBL document CHEMBL4665790, in case you need it.

- System tested: Peroxisome proliferator-activated receptor gamma (Homo sapiens, UniProt P37231)
- Sequence (P37231 whole entry): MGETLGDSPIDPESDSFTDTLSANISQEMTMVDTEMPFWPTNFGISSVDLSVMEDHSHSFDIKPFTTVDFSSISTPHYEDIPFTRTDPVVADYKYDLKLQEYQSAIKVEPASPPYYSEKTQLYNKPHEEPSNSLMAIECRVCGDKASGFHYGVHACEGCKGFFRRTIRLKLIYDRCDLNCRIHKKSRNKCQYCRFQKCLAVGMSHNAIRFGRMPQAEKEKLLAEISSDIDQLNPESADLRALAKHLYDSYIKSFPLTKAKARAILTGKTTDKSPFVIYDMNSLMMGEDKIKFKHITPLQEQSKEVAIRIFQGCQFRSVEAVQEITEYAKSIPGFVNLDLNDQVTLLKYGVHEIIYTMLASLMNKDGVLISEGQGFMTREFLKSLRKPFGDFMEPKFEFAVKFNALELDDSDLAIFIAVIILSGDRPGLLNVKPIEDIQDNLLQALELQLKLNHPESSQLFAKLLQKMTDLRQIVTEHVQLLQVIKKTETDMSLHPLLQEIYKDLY
- Test method notes: Agonist activity at PPARy in human HepG2 cells transfected with human PPRE incubated for 14 to 16 hrs using pre-irradiated compound by firefly luciferase reporter gene assay
- Assay type: cell-based
Readout: EC50 (nM)

[
  {
    "Compound": "Cc1ccccc1-c1ccc(/N=N\\c2ccc(CC3SC(=O)NC3=O)cc2)cc1 (stereo unspecified)",
    "Unit abbreviation": "nM",
    "Value reported": 900
  }
]

----------
- System tested: Peroxisome proliferator-activated receptor gamma (Homo sapiens, UniProt P37231)
- Test method notes: Agonist activity at PPARgamma (unknown origin) expressed in HEK293T cells incubated for 14 to 16 hrs under irradiation by hybrid Gal4 reporter gene assay
- Type: cell-based
Binary call on EC50 with cut-off 6 µM: strictly below means fulfilled, and equality or higher means not fulfilled.

[
  {
    "Molecule": "Cc1ccccc1-c1ccc(/N=N/c2ccc(CC3SC(=O)NC3=O)cc2)cc1 (stereo not drawn)",
    "System tested": "Peroxisome proliferator-activated receptor gamma (Homo sapiens, UniProt P37231)",
    "Assigned category": "fulfilled"
  },
  {
    "Molecule": "O=C1NC(=O)C(Cc2ccc(/N=N/c3ccc(Cl)cc3)cc2)S1 (stereo not drawn)",
    "System tested": "Peroxisome proliferator-activated receptor gamma (Homo sapiens, UniProt P37231)",
    "Assigned category": "fulfilled"
  },
  {
    "Molecule": "Cc1ccccc1-c1ccc(/N=N\\c2ccc(CC3SC(=O)NC3=O)cc2)cc1 (stereo not drawn)",
    "System tested": "Peroxisome proliferator-activated receptor gamma (Homo sapiens, UniProt P37231)",
    "Assigned category": "not fulfilled"
  },
  {
    "Molecule": "O=C1NC(=O)C(Cc2ccc(/N=N/c3ccccc3)cc2)S1 (stereo not drawn)",
    "System tested": "Peroxisome proliferator-activated receptor gamma (Homo sapiens, UniProt P37231)",
    "Assigned category": "fulfilled"
  },
  {
    "Molecule": "O=C1NC(=O)C(Cc2ccc(/N=N\\c3ccc(C(F)(F)F)cc3)cc2)S1 (stereo not drawn)",
    "System tested": "Peroxisome proliferator-activated receptor gamma (Homo sapiens, UniProt P37231)",
    "Assigned category": "not fulfilled"
  },
  {
    "Molecule": "O=C1NC(=O)C(Cc2ccc(/N=N\\c3ccccc3)cc2)S1 (stereo not drawn)",
    "System tested": "Peroxisome proliferator-activated receptor gamma (Homo sapiens, UniProt P37231)",
    "Assigned category": "not fulfilled"
  },
  {
    "Molecule": "O=C1NC(=O)C(Cc2ccc(/N=N/c3ccc(C(F)(F)F)cc3)cc2)S1 (stereo not drawn)",
    "System tested": "Peroxisome proliferator-activated receptor gamma (Homo sapiens, UniProt P37231)",
    "Assigned category": "fulfilled"
  },
  {
    "Molecule": "O=C1NC(=O)C(Cc2ccc(/N=N\\c3ccc(Cl)cc3)cc2)S1 (stereo not drawn)",
    "System tested": "Peroxisome proliferator-activated receptor gamma (Homo sapiens, UniProt P37231)",
    "Assigned category": "not fulfilled"
  }
]
